biological target: recombinantly expressed human sodium-dependent ileal bile acid transporter (IBAT, ASBT, SLC10A2) (Homo sapiens, UniProt Q12908); construct: Bases 599 to 1645 correspond to the complete coding region of the human IBAT; assay: in vitro IBAT inhibition test ([3H]-taurocholic acid uptake into CHO-hIBAT cells); details: CHO-hIBAT cells, taurocholic acid 10 μM, 60 min at room temperature
Sequence (Q12908 whole entry): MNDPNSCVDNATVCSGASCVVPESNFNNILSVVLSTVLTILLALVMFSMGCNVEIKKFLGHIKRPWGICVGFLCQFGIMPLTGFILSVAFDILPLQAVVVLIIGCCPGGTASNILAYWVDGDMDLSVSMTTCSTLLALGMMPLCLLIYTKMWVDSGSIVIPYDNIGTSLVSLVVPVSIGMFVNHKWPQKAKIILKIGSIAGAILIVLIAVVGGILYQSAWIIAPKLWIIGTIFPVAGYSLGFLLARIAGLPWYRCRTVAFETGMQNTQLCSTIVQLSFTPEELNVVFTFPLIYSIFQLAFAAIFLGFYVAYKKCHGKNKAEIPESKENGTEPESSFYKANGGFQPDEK
READOUT_TYPE: IC50 (nM)

[[record]]
given_smiles = "CCCCC1(CCCC)CS(=O)(=O)c2ccc(N(C)C)cc2[C@@H](c2cccc(NC(=O)N[C@@H]3O[C@H](CO)[C@@H](O)[C@H](O)[C@H]3O)c2)N1"
unit = "nM"
result_value = 57

